Reported AC50 is given for each of the following compounds.
# ASSAYED SYSTEM: Cytochrome P450 3A4 (Homo sapiens)
# Sequence (P08684 whole entry): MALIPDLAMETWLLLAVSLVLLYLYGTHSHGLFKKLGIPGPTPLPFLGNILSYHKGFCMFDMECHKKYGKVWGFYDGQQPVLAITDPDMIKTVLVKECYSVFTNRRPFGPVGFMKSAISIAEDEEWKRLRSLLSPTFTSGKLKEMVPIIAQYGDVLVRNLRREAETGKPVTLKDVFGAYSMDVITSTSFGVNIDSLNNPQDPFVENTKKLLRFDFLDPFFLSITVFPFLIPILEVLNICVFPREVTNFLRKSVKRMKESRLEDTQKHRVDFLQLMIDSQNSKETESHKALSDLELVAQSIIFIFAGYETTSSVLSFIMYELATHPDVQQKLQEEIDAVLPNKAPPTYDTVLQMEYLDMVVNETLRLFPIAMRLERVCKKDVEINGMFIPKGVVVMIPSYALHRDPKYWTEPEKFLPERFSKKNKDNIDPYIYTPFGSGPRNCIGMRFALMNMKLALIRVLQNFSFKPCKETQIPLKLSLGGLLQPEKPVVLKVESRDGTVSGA

COMPOUND: COc1cccc(C2C(C(=O)c3cc4ccccc4o3)=C(O)C(=O)N2c2cc(C)on2)c1OC (stereo not drawn)
ASSAYED SYSTEM: Cytochrome P450 3A4 (Homo sapiens)
AC50: 28.2 µM (inconclusive)
//
COMPOUND: Cc1ccc(/C=C/c2nnc(-c3ccc(C)cc3)o2)cc1
ASSAYED SYSTEM: Cytochrome P450 3A4 (Homo sapiens)
AC50: 10 µM (inconclusive)
//
COMPOUND: Cn1c(=O)c(CCc2ccccc2)nc2cnc(Nc3ccccc3)nc21
ASSAYED SYSTEM: Cytochrome P450 3A4 (Homo sapiens)
AC50: 12.6 µM (inconclusive)
//
COMPOUND: CCNc1ncc2nc(-c3cccs3)c(=O)n(C[C@H]3CCCO3)c2n1
ASSAYED SYSTEM: Cytochrome P450 3A4 (Homo sapiens)
AC50: 7.94 µM (inconclusive)
//
COMPOUND: C=CCNC(=O)c1cccn1-c1ccsc1C(=O)OC
ASSAYED SYSTEM: Cytochrome P450 3A4 (Homo sapiens)
AC50: 14.1 µM (inconclusive)
//
COMPOUND: Cc1ccc(S(=O)(=O)NC2=NC(=O)/C(=C/c3cccnc3)S2)cc1
ASSAYED SYSTEM: Cytochrome P450 3A4 (Homo sapiens)
AC50: 0.891 µM (inconclusive)
//
COMPOUND: COc1cc(N)c(Cl)cc1C(=O)CCC1CCN(CCNS(C)(=O)=O)CC1
ASSAYED SYSTEM: Cytochrome P450 3A4 (Homo sapiens)
AC50: 15.8 µM (inconclusive)
//
COMPOUND: CC(=O)N1CCC[C@@]2(CCN(c3ccncc3)C2)C1
ASSAYED SYSTEM: Cytochrome P450 3A4 (Homo sapiens)
AC50: 25.1 µM (inconclusive)
//
COMPOUND: N#Cc1cccc(NC(=O)N2CCC3(CC2)CCN(C(=O)c2csnn2)CC3)c1
ASSAYED SYSTEM: Cytochrome P450 3A4 (Homo sapiens)
AC50: 20 µM (inconclusive)
//
COMPOUND: O=C(C/C=N/OCc1ccc(F)cc1Cl)c1cnc(-c2ccccc2)s1
ASSAYED SYSTEM: Cytochrome P450 3A4 (Homo sapiens)
AC50: 14.1 µM (inconclusive)
//
COMPOUND: OCCNc1ncnc2nc[nH]c12
ASSAYED SYSTEM: Cytochrome P450 3A4 (Homo sapiens)
AC50: 0.251 µM (inconclusive)
//
COMPOUND: CCCC(=O)Nc1nc(-c2ccc3c(c2)CCN3S(C)(=O)=O)cs1
ASSAYED SYSTEM: Cytochrome P450 3A4 (Homo sapiens)
AC50: 7.94 µM (inconclusive)
//
COMPOUND: Cc1nc2cnc(N3CCOCC3)nc2n(C2CC2)c1=O
ASSAYED SYSTEM: Cytochrome P450 3A4 (Homo sapiens);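 also: CYP3A4 tested as one member of a cytochrome P450 panel screen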
AC50: 15.8 µM (inconclusive)
